# Tested on: SW1271 complex spheroids with HUVEC/MSC, growth, % test/control
# Assay Remarks: Anticancer human tumor SW1271 cell line growth inhibition [AhR];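 note: spheroids exposed to agents for 7 days before readout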
# Reported Conditions: second compound 3.16 µM; first compound 0.1 µM; hits give low values
Collected viability, T/C values appear next to each entry.
API: value field is a number in %; no unit string.

| Molecule | Number |
| --- | --- |
| COc1cc(C2c3cc4c(cc3C(OC3OC5COC(C)OC5C(O)C3O)C3COC(=O)C23)OCO4)cc(OC)c1O (configuration not stated) + Cc1cncc(-c2nc(NCCc3c[nH]c4ccccc34)c3ncn(C(C)C)c3n2)c1 | 99.2 |
| CC1COCCN1c1cc(-c2ccnn2C)c2ccnc(-c3ccn[nH]3)c2n1 (configuration not stated) + CC(CO)NC(=O)c1cc(-c2ccc(Cl)cc2)nn(-c2cnn(C)c2)c1=O | 75.9 |
| NS(=O)(=O)OCC1CC(n2ccc3c(NC4CCc5ccccc54)ncnc32)CC1O (configuration not stated) + CC(CO)NC(=O)c1cc(-c2ccc(Cl)cc2)nn(-c2cnn(C)c2)c1=O | 129 |
| COc1cc(Nc2ncc3c(n2)-c2ccc(Cl)cc2C(c2c(F)cccc2OC)=NC3)ccc1C(=O)O + Cc1ccccc1N=Nc1ccc(NC(=O)c2ccnn2C)c(C)c1 | 72.5 |
| Nc1ncn(C2CC(O)C(CO)O2)c(=O)n1 (configuration not stated) + CC(CO)NC(=O)c1cc(-c2ccc(Cl)cc2)nn(-c2cnn(C)c2)c1=O | 67.1 |
| CC[C@@]1(O)C(=O)OCc2c1cc1n(c2=O)Cc2cc3c(CN(C)C)c(O)ccc3nc2-1 + Cc1ccccc1N=Nc1ccc(NC(=O)c2ccnn2C)c(C)c1 | 67.4 |

Enter reported viability, T/C observed with SW1271 complex spheroids with HUVEC/MSC, growth, % test/control for CC(C)c1c(-c2ccccc2)nc2c(C#N)c[nH]n2c1=O + CC(CO)NC(=O)c1cc(-c2ccc(Cl)cc2)nn(-c2cnn(C)c2)c1=O
97.8

Enter reported viability, T/C observed with SW1271 complex spheroids with HUVEC/MSC, growth, % test/control for CC1COCCN1c1cc(-c2ccnn2C)c2ccnc(-c3ccn[nH]3)c2n1 (configuration not stated) + Cc1cncc(-c2nc(NCCc3c[nH]c4ccccc34)c3ncn(C(C)C)c3n2)c1
70.2

Enter reported viability, T/C observed with SW1271 complex spheroids with HUVEC/MSC, growth, % test/control for Nc1ccccc1NC(=O)c1ccc(CNC(=O)OCc2cccnc2)cc1 + CC(CO)NC(=O)c1cc(-c2ccc(Cl)cc2)nn(-c2cnn(C)c2)c1=O
64.7

Enter reported viability, T/C observed with SW1271 complex spheroids with HUVEC/MSC, growth, % test/control for COc1cc(Nc2ncc3c(n2)-c2ccc(Cl)cc2C(c2c(F)cccc2OC)=NC3)ccc1C(=O)O + Cc1cncc(-c2nc(NCCc3c[nH]c4ccccc34)c3ncn(C(C)C)c3n2)c1
87.5

Enter reported viability, T/C observed with SW1271 complex spheroids with HUVEC/MSC, growth, % test/control for O=C(C=Cc1cccc(S(=O)(=O)Nc2ccccc2)c1)NO + Cc1ccccc1N=Nc1ccc(NC(=O)c2ccnn2C)c(C)c1
94

Enter reported viability, T/C observed with SW1271 complex spheroids with HUVEC/MSC, growth, % test/control for Nc1ccccc1NC(=O)c1ccc(CNC(=O)OCc2cccnc2)cc1 + Cc1ccccc1N=Nc1ccc(NC(=O)c2ccnn2C)c(C)c1
120

Enter reported viability, T/C observed with SW1271 complex spheroids with HUVEC/MSC, growth, % test/control for COc1ccc([C@@H](O)c2cc(-c3ncnc4cc(N5CCOCC5)ccc34)c(F)cc2Cl)nn1 + Cc1ccccc1N=Nc1ccc(NC(=O)c2ccnn2C)c(C)c1
80.5

Enter reported viability, T/C observed with SW1271 complex spheroids with HUVEC/MSC, growth, % test/control for COc1cccc2c1C(=O)c1c(O)c3c(c(O)c1C2=O)CC(O)(C(=O)CO)CC3OC1CC(N)C(O)C(C)O1 (configuration not stated) + Cc1cncc(-c2nc(NCCc3c[nH]c4ccccc34)c3ncn(C(C)C)c3n2)c1
77.8
